Each recorded value in this set is attributed to PubChem BioAssay (NCI).

assay procedure: NCI Yeast Anticancer Drug Screen. Data for the rad50 strain (AID 155)
run parameters: S. cerevisiae rad50 strain growth inhibition; at 50.0 µM (retest, dose inferred, filed as 5.0)
Compounds without any hit were thinned out: in the full panel of roughly 79,000, 15% have a hit. Calls of active or inactive are those of the source. Cut-off read from the data, not from the text of the source: active = growth inhibition above about 70%; inactive = the rest.
// allowed return values: active, inactive

| compound | group |
| --- | --- |
| O=C1NC(=O)C(C(c2ccnc3ccccc23)C2C(=O)NC(=O)NC2=O)C(=O)N1 | inactive |
| O=C(c1ccccc1)C1C(c2ccccc2[N+](=O)[O-])N1C1CCCCC1 (configuration not stated) | active |
| C1CC[N-]CC1.CC(=N\O)/C(C)=N/O.CC(=N\O)/C(C)=N/O.OC1[CH-]CCCC1.[Co+2] | inactive |

Qu. Recorded call for ClCCN(CCCl)c1ccc(C2N(Cc3ccc(Cl)cc3)CCCN2Cc2ccc(Cl)cc2)cc1 ?
Ans. inactive

Qu. Entry O=C(/C=C(\c1ccccc1)N1CC1)c1ccccc1 : call = ?
Ans. active

Qu. Tell me the recorded outcome of this test for Nc1cc(Cl)ccc1C(=O)c1ccccc1Cl .
Ans. active

Qu. For c1ccc(NC2=NCCN2)nc1 , what call appears in the results of this test?
Ans. active

====

assay procedure: NCI Yeast Anticancer Drug Screen. Data for the rad18 strain (AID 177)
run parameters: S. cerevisiae rad18 mutant growth inhibition; at 11.0 µM; active compounds read high
About 79,000 compounds went through this panel and 15% of them were active in at least one assay; those are over-represented in the sample as a whole.
Classification field: t = growth inhibition at or over 20%; f = growth inhibition under 20%.

| molecule | group |
| --- | --- |
| Cc1c2ccccc2cc2ccccc12 | t |
| Nc1nnc(N)n1-n1c(N)nnc1N | f |
| c1c(N2CCOCC2)ssc1=[N+]1CCOCC1 | f |
| Oc1ccc2nc3ccccc3nc2c1 | f |
| CCOC(=O)C1=C(C(=O)OCC)C2(c3ccccc3)N(O1)c1ccccc1C2(C)C (stereo unspecified) | f |

Continue with the next molecule.
Qu. Does CCN(CCCl)c1cc(CN(C)C)cc(NC(=O)c2ccc(C(=O)Nc3cc(CN(C)C)cc(N(CC)CCCl)c3)cc2)c1 have a reported growth inhibition of at least 20%?
Ans. t

====

assay procedure: NCI Yeast Anticancer Drug Screen. Data for the bub3 strain (AID 167)
run parameters: S. cerevisiae bub3 mutant strain, at 5.0 µM (retest, dose inferred, filed as 0.5)
This is part of a sample that, as a whole, favours compounds with a hit. Of some 79,000 tested, about 15% had one in any assay. Calls of active or inactive are those of the source. No stated cut-off is given here; in the data, active means growth inhibition above about 70%; inactive means the rest.
Tick one outcome: active, inactive

Qu. Assay result, entry CCN(CC)P1(=O)OC(c2ccccc2)=CCN1c1ccc(OC)cc1 (stereo not drawn) — outcome?
Ans. inactive

Qu. # outcome recorded in this test, key = O=C(O)CP(=O)(c1ccccc1)c1ccccc1.O=C(O)CP(=O)(c1ccccc1)c1ccccc1.[Cd]
Ans. inactive

Qu. For CC(C)c1cccc(C(C)C)c1NC(=O)C(=O)CC(=O)CC(c1ccccc1)c1c(O)c2ccccc2oc1=O (stereo not drawn) , what call appears in the results of this test?
Ans. inactive

Qu. Returns: the outcome recorded for CCC1(O)C(=O)OCc2c1cc1n(c2=O)Cc2cc3ccc(C#N)cc3nc2-1 (stereo not drawn) in this assay.
Ans. inactive

Qu. Can you look up the reported call for CCOP(=O)(OCC)/C(C#N)=C/c1cccc(C)c1 for me?
Ans. inactive

Qu. Test call, this compound: ClC(C[n+]1ccccc1)c1ccccc1 (stereo not drawn)
Ans. inactive

Qu. Fill in: this test's call for C/C(=N\NS(=O)(=O)c1ccc(C)cc1)C(CN1CCOCC1)C(c1ccccc1)c1c(O)c2ccccc2oc1=O (stereo not drawn) is ___
Ans. inactive

Qu. Write down the call the test reported for this compound. Item: COc1cc2c(c(OC)c1OC)-c1ccc(O)c(=O)cc1C(NC(C)=O)CC2 (stereo not drawn)
Ans. inactive
